Just for reference, ChEMBL document CHEMBL4513216 is where these values come from.

# Tested on: Plasmodium berghei
# ASSAY NOTES: Screen against P. berghei liver stage (PbLuc), transformed with Luciferase, at 10uM
# Format: functional, HepG2
# TEST CONDITIONS: tested at 10 uM
In all, about 69,000 compounds went through this assay and about 8,600 (12%) showed an effect of 50% or more. What follows is part of a selection rich in strong results, with near analogues and random picks from the rest.
MEASUREMENT KIND: INHIBITION (%)
Report only the number, with the unit % understood.

COMPOUND: O=C1CC[C@H]2[C@H](CCN2C(=O)C2CCCO2)N1Cc1cccnc1 (stereo partly specified)
ASSAYED TARGET: Plasmodium berghei
MEASUREMENT KIND: INHIBITION
OBSERVED MEASUREMENT: 5.96
//
COMPOUND: Cc1cc(COC(=O)[C@@H]2Cc3ccccc3CN2S(C)(=O)=O)no1
ASSAYED TARGET: Plasmodium berghei
MEASUREMENT KIND: INHIBITION
OBSERVED MEASUREMENT: 5.91
//
COMPOUND: COCC(=O)N1CC[C@H]2O[C@@H](C)C[C@H]2C1
ASSAYED TARGET: Plasmodium berghei
MEASUREMENT KIND: INHIBITION
OBSERVED MEASUREMENT: -1.55
//
COMPOUND: Cc1cnn(CC2CN(CCCc3nc4ccccc4o3)CCO2)c1 (stereo unspecified)
ASSAYED TARGET: Plasmodium berghei
MEASUREMENT KIND: INHIBITION
OBSERVED MEASUREMENT: -12.1
//
COMPOUND: CCS(=O)(=O)N1Cc2ccccc2CC1C(=O)OCc1c(C)noc1C (stereo unspecified)
ASSAYED TARGET: Plasmodium berghei
MEASUREMENT KIND: INHIBITION
OBSERVED MEASUREMENT: -16.3

Dear colleague, I am looking for the recorded INHIBITION of the following compound: "COc1ncnc2c1CCN(Cc1cccc(C)n1)CC2" 10.7

Again, but for CC(=O)NC1Cc2ccc(S(=O)(=O)NCCNc3ccccn3)cc2C1 (stereo unspecified) -18.8
